Exercise: state measured protein stability index for each of the variants provided.
B1: TMEM106C (parent)
chain: FTGRDSITCLTCQGTGYIPTEQVN

Variants of: B1
Assay: protein stability index of a GFP-peptide fusion (GPS, HEK-293T) (PSI 1-6); higher = more stable;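 also: lentivirally expressed fusions sorted by FACS into six bins by GFP to DsRed ratio, PSI derived from sequencing read proportions per bin multiplied by bin number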
Details: c terminus: a fixed tail appended

protein stability index for `T8Q` ?
2.37

Any idea what its protein stability index is? The variant is `P19W`
2.29

Data request, read-out protein stability index, for `G3D`
1.85

Report protein stability index for `E21I` please.
2.16

I am curious: what protein stability index value has been reported for `C12H` ?
1.98

# protein stability index lookup, item `Q22A`
2.07

Any idea what protein stability index was measured for `T11L` ?
1.66

I would be grateful if you could share the reported protein stability index for `E21S` .
1.94

If you can, please state the reported protein stability index value of `Y17D` .
2.17

Field request: protein stability index | item: `G16W`
2.98

Suppose we examine the variant `V23N` ; what protein stability index value has been reported?
2.12

For `P19A` , what is its reported protein stability index?
2.04

Reported protein stability index, variant `T20Q` : ____
2.65

protein stability index for `C12A` ?
2.17

Item `P19Q` has what recorded protein stability index?
2.05

Reported protein stability index for `R4W` : what is it?
2.62

I am curious: what protein stability index value has been reported for `P19Y` ?
1.78

Which protein stability index value belongs to `T15K` ?
2.12

What value of measured protein stability index is listed for `Y17G` ?
1.47

I have this variant here, `R4D` , and I need its recorded protein stability index.
3.14

Given `Q13R` , state its recorded protein stability index.
2.18

Given the entry `Q13L` , report its measured protein stability index.
2.13
